Experiment: Epimerization kinetics / rotational energy barrier of atropisomers in solvents
Assay type: physicochemical
Conditions: buffer, t1/2 at 85° C.
MEASUREMENT LABEL: half-life (min)
The response must be a number in min with no trailing unit.

Request: Reported half-life, compound C=CC(=O)N[C@H]1CCC[C@H]1NC(=O)c1sc2nccc3c2c1NC(=O)N3c1cnc(CC(C)C)cc1C [Formula (II)] : ____
Result: 224

###

Assay: Rat oral bioavailability (% F)
Assay type: in vivo
Details: in vivo, oral, 1 g/kg, crystalline suspension, read-out: Rat % F (1 g/kg, crystalline suspension)
MEASUREMENT LABEL: bioavailability

Request: For the molecule shown here, `C=CC(=O)N1CC[C@@H](NC(=O)c2sc3nccc4c3c2NC(=O)N4c2ccc(Oc3ccccc3)cc2C)C1` , give the reported bioavailability.
Result: < 1%
